Experiment: P-glycoprotein substrates identified in KB-8-5-11 adenocarcinoma cell line, qHTS therapeutic library screen (AID 1346987); further: nearly all actives have a fitted effect of over 65% in size
Conditions: KB-8-5-11 (P-gp overexpressing) viability, CellTiter-Glo, 72 h; series mostly up to 44.5 µM
Records with an inconclusive call do not appear. Calls of active or inactive are those of the source. The call rests on the fitted dose curve; in most records, active means well fitted inhibition curve with a large enough effect; inconclusive means small, poorly fitted or top-dose-only effect; inactive means flat fitted curve, though single readings scatter.
Mark one answer only. Choices: Yes for active, No for inactive

Examples with answers:
Compound	Discrete label
CN1CCN(C(=O)O[C@H]2c3nccnc3C(=O)N2c2ccc(Cl)cn2)CC1	No
Oc1ccccc1-c1ccccc1	No
CC(=O)[C@H]1CC[C@H]2[C@@H]3CC[C@H]4C[C@](C)(O)CC[C@]4(C)[C@H]3CC[C@]12C	No
Oc1ccc(Cl)cc1Cc1ccccc1	No
Nc1ccncc1	No
CNC(=O)c1ccc(N2C(=S)N(c3ccc(C#N)c(C(F)(F)F)c3)C(=O)C23CCC3)cc1F	No

Can you look up the reported call for `CC(=O)Nc1cc([As](=O)(O)O)ccc1O` for me?
No

So what was the verdict on `O=[N+]([O-])c1cc([As](=O)(O)O)ccc1O` in this test?
No

Any idea what this test logged for `O=C(O)P(=O)(O)O` ?
No

Check the results log: what was the call for `N[C@@H](Cc1ccc(N(CCCl)CCCl)cc1)C(=O)O` ?
No

Can you look up the reported call for CCCC(C)(COC(N)=O)COC(=O)NC(C)C (centres undefined) for me?
No

What is the recorded call for this compound in the test? `CCN(C(C)=O)c1cccc(-c2ccnc3c(C#N)cnn23)c1`
No

Test call, this compound: O=P1(NCCCl)OCCCN1CCCl (centres undefined)
Yes

Outcome logged for `Cc1sc2c(c1C)C(c1ccc(Cl)cc1)=N[C@@H](CC(=O)OC(C)(C)C)c1nnc(C)n1-2` in this assay:
Yes

Which outcome was entered for the compound `Fc1ccc(C(OCCN2CCN(CCCc3ccccc3)CC2)c2ccc(F)cc2)cc1` in this test?
Yes

Each compound tested received a call. Report the one for `CC1=C2C[C@@H]3[C@@H](CC=C4C[C@@H](O)CC[C@@]43C)[C@@H]2CC[C@]12O[C@H]1C[C@H](C)CN[C@H]1[C@H]2C` .
No

I'd appreciate the recorded outcome for CCC(C(N)=O)N1CCCC1=O (centres undefined) from this test.
No

Please indicate how the test categorized `NP(N)(=O)NC(=O)c1ccc(F)cc1` .
No

Just curious, what result did `C#CCN(C)[C@H](C)Cc1ccccc1` get here?
No
